assay: NS1 protein of Zika virus - qHTS assay to identify small molecule inhibitors in human HEK 293 cells (AID 1347053); conditions: HEK293 ZIKV MR766 infection, NS1 TR-FRET, 24 h; series mostly up to 46.1 µM; further: nearly all actives have a fitted effect of over 55% in size
Records with an inconclusive call do not appear. Activity calls are given as the source filed them. The call rests on the fitted dose curve; in most records, active means well fitted inhibition curve with a large enough effect; inconclusive means small, poorly fitted or top-dose-only effect; inactive means no such curve, though single readings can be large or run the other way.
Tick one outcome: y (active), n (inactive)

Below, 3 compounds whose answers are already recorded.
- Compound: "CC(=O)Nc1ccc(OC[C@](C)(O)C(=O)Nc2ccc([N+](=O)[O-])c(C(F)(F)F)c2)cc1"
  Assigned category: "n"
- Compound: "CCN1C[C@]2(OC(=O)c3ccccc3NC(C)=O)CC[C@H](OC)[C@@]34[C@H]5CC6[C@@H](OC)C[C@](O)(C(C[C@@H]23)[C@@H]14)[C@@]5(O)[C@@H]6OC"
  Assigned category: "n"
- Compound: "CCC(=O)OC1CCC2C3CCC4=CC(=O)CC[C@@]4(C)C3CC[C@]12C (some centres undefined)"
  Assigned category: "n"

// return assay outcome for CO/C=C(/C(=O)OC)c1ccccc1Oc1cc(Oc2ccccc2C#N)ncn1
y

// return assay outcome for CCCCC(CC)COC(=O)c1ccccc1C(=O)OCC(CC)CCCC (centres undefined)
n

// return assay outcome for c1ccc(C2(c3ccccc3)CC2C2=NCCN2)cc1 (centres undefined)
n

// return assay outcome for O=C(O)CC[N+](=O)[O-]
n

// return assay outcome for O=C1CCC[C@@H]2[C@H]3CCCN4CCC[C@@H](CN12)[C@@H]34
n

// return assay outcome for C[C@]12COC(=O)C[C@@H]1CC[C@@H]1[C@H]2CC[C@@]2(C)[C@H]1CC[C@]2(C)O
n

* * *

biological target: ATP-dependent 6-phosphofructokinase (Trypanosoma brucei brucei); assay: qHTS Assay to Find Inhibitors of T. brucei phosphofructokinase: hit validation (AID 492961); settings: T. brucei PFK, ADP-Glo luminescence; series mostly up to 51.4 µM
Results filed as inconclusive are left out. Calls of active or inactive are those of the source. The call rests on the fitted dose curve; in most records, active means well fitted inhibition curve with a large enough effect; inconclusive means small, poorly fitted or top-dose-only effect, or effect the other way; inactive means flat fitted curve, though single readings scatter.
Tick one outcome: Y for active, N for inactive

- Compound: "CCCN1CCC[C@H](c2cccc(O)c2)C1"
  Assigned category: "N"
- Compound: "Cc1cc(O)ccc1Cl"
  Assigned category: "N"
- Compound: "COC(C)(C)CCCC(C)C/C=C/C(C)=C/C(=O)OC(C)C (configuration not stated)"
  Assigned category: "N"
- Compound: "NC(=O)CN1CC(O)CC1=O (configuration not stated)"
  Assigned category: "N"
- Compound: "C[C@]12CCC(=O)C(O)=C1CC[C@@H]1[C@H]3CCC(=O)[C@@]3(C)CC[C@@H]12"
  Assigned category: "N"

// return assay outcome for CC(=O)[O][Hg][c]1ccccc1
Y

// return assay outcome for c1ccc(C2(c3ccccc3)CC2C2=NCCN2)cc1 (configuration not stated)
N

// return assay outcome for CN(C)[C@@H]1C(=O)C(C(N)=O)=C(O)[C@@]2(O)C(=O)C3=C(O)c4c(O)cccc4[C@@](C)(O)[C@H]3[C@H](O)[C@@H]12
N

// return assay outcome for CCCCCCCCCC(CC)c1ccc(S(=O)(=O)O)cc1 (configuration not stated)
N

* * *

Item-by-item account of max response
Assay: qHTS Assay for Lipid Storage Modulators (AID 1519)
Conditions: Drosophila S3 cells, BODIPY lipid droplet/cell ratio, laser cytometry; measured here: lipid channel max response; cells loaded with oleic acid
Method: NIH Molecular Libraries Probe Production Centers Network [MLPCN] NIH Chemical Genomics Center [NCGC] Assay Submitter (PI): Beller, Mathias; Max-Planck-Institut fur Biophysikalische Chemie […] We dispensed 4 uL of cells at 1.25 x 10^6 cells/mL into LoBase Aurora COC 1,536-well plates (black walled, clear bottom) with a bottle-valve solenoid-based dispenser (Aurora) to obtain 5,000 cells/well. […] The ratio of the total intensity in PMT channel 1 over total intensity of channel 3 was also calculated. […]
Inconclusive results are not listed.
Please state the number and follow it with the unit.

Examples with their reported max response follow.
- Compound: "Cn1cnc(CCN)c1"
  Value measured: "35.2%"
- Compound: "Oc1ccc2c3c1O[C@H]1c4[nH]c5c(c4C[C@@]4(O)[C@@H](C2)N(CC2CC2)CC[C@]314)C[C@@]1(O)[C@H]2Cc3ccc(O)c4c3[C@@]1(CCN2CC1CC1)[C@H]5O4"
  Value measured: "-23.6%"
- Compound: "O=C(Cc1ccc(Cl)c(Cl)c1)N1CCCCC1CN1CCCC1 (stereo unspecified)"
  Value measured: "19.9%"
- Compound: "CN1C2CCC1CC(OC(=O)c1cc(Cl)cc(Cl)c1)C2 (stereo unspecified)"
  Value measured: "-22.4%"
- Compound: "C[C@@H](N)Cc1cnc[nH]1"
  Value measured: "-3.82%"
- Compound: "NCCc1c[nH]c2ccccc12"
  Value measured: "17.6%"
- Compound: "C[N+]1(C)C2CCC1CC(OC(=O)C(CO)c1ccccc1)C2 (stereo unspecified)"
  Value measured: "-18.4%"
- Compound: "CN[C@@H](C)[C@H](O)c1ccccc1"
  Value measured: "-56.7%"

Let me know recorded max response for Cc1cc(O)ccc1Cl , thanks.
5.53%

Let me know recorded max response for NC(=NCCC[C@H](N)C(=O)O)N[N+](=O)[O-] , thanks.
0.435%

Let me know recorded max response for CC(=O)[C@H]1CCC2C3CC[C@H]4C[C@H](O)CC[C@]4(C)C3CC[C@@]21C (stereo partly specified) , thanks.
-15.9%
